The measurements presented in this section are drawn from patent US10577383B2.

Reported values of IC50 for individual entries
test.target: UniProt P05164
Sequence (P05164 49-745): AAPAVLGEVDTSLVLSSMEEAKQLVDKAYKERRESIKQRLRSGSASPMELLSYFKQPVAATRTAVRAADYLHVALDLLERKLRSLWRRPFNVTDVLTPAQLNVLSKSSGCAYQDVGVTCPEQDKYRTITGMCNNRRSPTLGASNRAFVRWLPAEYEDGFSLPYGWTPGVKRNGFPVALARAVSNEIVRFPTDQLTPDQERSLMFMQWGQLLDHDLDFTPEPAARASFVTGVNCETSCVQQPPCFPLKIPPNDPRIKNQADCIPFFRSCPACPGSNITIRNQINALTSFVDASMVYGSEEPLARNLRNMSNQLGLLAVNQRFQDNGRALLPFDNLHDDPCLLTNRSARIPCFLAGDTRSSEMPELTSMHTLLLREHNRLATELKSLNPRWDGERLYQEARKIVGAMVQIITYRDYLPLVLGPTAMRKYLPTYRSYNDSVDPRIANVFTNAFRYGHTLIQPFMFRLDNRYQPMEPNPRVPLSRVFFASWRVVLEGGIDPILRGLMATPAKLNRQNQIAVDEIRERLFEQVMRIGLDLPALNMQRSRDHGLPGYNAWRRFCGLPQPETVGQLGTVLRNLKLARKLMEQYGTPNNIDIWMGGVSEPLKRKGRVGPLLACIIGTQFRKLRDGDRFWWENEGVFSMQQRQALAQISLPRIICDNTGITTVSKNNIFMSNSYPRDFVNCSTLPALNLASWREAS
procedure.text: MPO Chlorination Assay (APF Assay)
Assay type: biochemical
condition.description: MPO chlorination activity, 100 mM KPi (pH 7.4), 120 mM NaCl, ten minute preincubation; potency ranges defined in nM

Nc1cc(C2CCNCc3ccc(F)c(c3)OCc3cccc(c3)Cn3cc2cn3)c2nn[nH]c2n1 (stereo not shown) [Example 14]    1 to 100 nM
Nc1cc(C2CCNCCc3cccc(c3)Oc3cccc(c3)Cn3cc2cn3)c2nn[nH]c2n1 (stereo not shown) [Example 3]    1 to 100 nM

Given the compound Nc1cc(C2CCNCc3ccc(F)c(c3)COc3ccc(F)c(c3)Cn3cc2cn3)c2nn[nH]c2n1 (stereo not shown) [Example 24] , what is its reported IC50?
1 to 100 nM

Given the compound Nc1cc(C2CCNCCCOc3cccc(c3)Cn3cc2cn3)c2nn[nH]c2n1 (stereo not shown) [Example 17] , what is its reported IC50?
101 to 999 nM
